Measured inhibition values are reported for all entries that follow.
targetSystem: Cytochrome P450 2C9 (Homo sapiens) (UniProt P11712)
Sequence (P11712 whole entry, looked up): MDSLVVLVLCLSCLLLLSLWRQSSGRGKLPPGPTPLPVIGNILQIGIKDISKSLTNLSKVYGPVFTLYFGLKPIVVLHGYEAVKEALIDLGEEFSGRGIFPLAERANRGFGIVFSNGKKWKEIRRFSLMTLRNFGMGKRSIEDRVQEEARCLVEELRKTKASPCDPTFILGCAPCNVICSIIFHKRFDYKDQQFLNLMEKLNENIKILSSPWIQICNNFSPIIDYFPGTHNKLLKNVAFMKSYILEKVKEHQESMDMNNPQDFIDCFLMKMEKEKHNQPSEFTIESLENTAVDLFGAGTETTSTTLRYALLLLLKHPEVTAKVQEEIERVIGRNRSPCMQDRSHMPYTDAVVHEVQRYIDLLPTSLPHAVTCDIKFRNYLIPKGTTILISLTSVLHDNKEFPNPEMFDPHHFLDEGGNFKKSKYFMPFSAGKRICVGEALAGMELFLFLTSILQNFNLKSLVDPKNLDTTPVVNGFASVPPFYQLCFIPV
testName: blockers of cytochrome P450 2C9 activity – biochemical, luminescence, ADME assay, primary screen (AID 777)
experimentalConditions: CYP2C9 Supersomes, luciferin-H conversion, at 5 µM, stronger effect = higher value
Among all 96,000 compounds or so, about 19,000 (20%) were called active. Only a sample is shown.
Write it as a number; the unit % goes unstated.

# compound, measuredParameter, val
rows = [
    ("Cc1n[nH]c(=S)n1/N=C/c1ccc(Br)o1", "inhibition", 4.5),
    ("CCSC1=C(C#N)C(=O)n2c1cc1c2CCCC1", "inhibition", -14.3),
    ("O=C1N=C(N2CCCC2)S/C1=C\\c1cccc(Br)c1", "inhibition", -42.1),
    ("CC(=O)Nc1cc2ccc(OC(C)=O)cc2oc1=O", "inhibition", -29.1),
    ("O=C(Nc1cc(C(F)(F)F)ccc1Cl)c1cc2nc3c(c(C(F)(F)F)n2n1)CCCC3", "inhibition", -42.8),
]

Form field inhibition, entry C=CCn1c(C(C)NC(=O)CC)nc2ccccc21 (configuration not stated) : -3.6

Form field inhibition, entry `CSc1ccc(C#N)cc1NC(=O)c1cccc(Cl)c1` : 18.2

Form field inhibition, entry `CNC(=O)c1csc(-c2ccccc2)n1` : 13.2

Form field inhibition, entry `Cc1ccc(-n2ncc3c(Nc4cccc(C(=O)O)c4)ncnc32)cc1` : 29.6

Form field inhibition, entry `Cc1cc(C)cc(N(CC(=O)Nc2c(C)n(C)n(-c3ccccc3)c2=O)S(C)(=O)=O)c1` : 16.3

Form field inhibition, entry `CCCCN1C(=O)/C(=C2/C=CC=CN2C)SC1=S` : -5

Form field inhibition, entry `COc1ccccc1-c1nc(C(F)(F)F)c(OC)o1` : 17

---

targetSystem: Cytochrome P450 2C9 (Homo sapiens) (UniProt P11712)
testName: blockers of cytochrome P450 2C9 activity – biochemical, luminescence, ADME assay, primary screen (AID 777)
experimentalConditions: CYP2C9 Supersomes, luciferin-H conversion, at 5 µM
The whole screen tested about 96,000 compounds, of which about 19,000 (20%) were called active.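 The calls were made as follows: active = blocking of liver enzyme CYP2C9 beyond about 50% at 5 µM (limit read from the data); inactive = the rest.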 Not all results are given here.
Log the outcome using a class from yes (1) (active), no (0) (inactive)

Reference set (5 entries):
# compound, classAssignment
records = [
    ("COc1ccc(CCNC(=O)CCCCn2c(=O)[nH]c3ccccc3c2=O)cc1OC", "yes (1)"),
    ("Cc1nc2ccc(S(=O)(=O)NCC(=O)O)cc2s1", "no (0)"),
    ("COc1ccc(CCNC(=O)CCn2c(=O)oc3ccccc32)cc1OC", "no (0)"),
    ("COc1cc(OC)c(C(=O)Nc2ccc(N(C)C)cc2)cc1OC", "no (0)"),
    ("Cc1ccc(CNC(=O)c2ccccc2CCc2ccccc2)cc1", "no (0)"),
]

Request: Write down the call the test reported for this compound. Item: `CCN(CC)CCNC(=O)CCCCCn1c(=O)[nH]c2cc(C(=O)OC)ccc2c1=O`
Result: no (0)

Request: Write down the call the test reported for this compound. Item: `COC(=O)c1ccc2c(c1)S(=O)(=O)NC(=NCCCN1CCOCC1)S2`
Result: no (0)

Request: Write down the call the test reported for this compound. Item: `CC(=O)Nc1cccc(-c2cnc3ccccc3n2)c1`
Result: no (0)

Request: Write down the call the test reported for this compound. Item: `COc1ccc(CCNC(=O)c2cc(-c3ccc4c(c3)OCO4)on2)cc1OC`
Result: no (0)

Request: Write down the call the test reported for this compound. Item: `Cn1c(=O)cc(SCC(=O)N2CCN(C(=O)c3ccco3)CC2)c2ccccc21`
Result: no (0)

These measurements were taken from PubChem BioAssay AID777.
